// provenance: ChEMBL document CHEMBL4052618

TARGET UNDER TEST: Epidermal growth factor receptor (Homo sapiens, UniProt P00533, L858R)
Sequence (P00533 25-1210 L858R limits assumed): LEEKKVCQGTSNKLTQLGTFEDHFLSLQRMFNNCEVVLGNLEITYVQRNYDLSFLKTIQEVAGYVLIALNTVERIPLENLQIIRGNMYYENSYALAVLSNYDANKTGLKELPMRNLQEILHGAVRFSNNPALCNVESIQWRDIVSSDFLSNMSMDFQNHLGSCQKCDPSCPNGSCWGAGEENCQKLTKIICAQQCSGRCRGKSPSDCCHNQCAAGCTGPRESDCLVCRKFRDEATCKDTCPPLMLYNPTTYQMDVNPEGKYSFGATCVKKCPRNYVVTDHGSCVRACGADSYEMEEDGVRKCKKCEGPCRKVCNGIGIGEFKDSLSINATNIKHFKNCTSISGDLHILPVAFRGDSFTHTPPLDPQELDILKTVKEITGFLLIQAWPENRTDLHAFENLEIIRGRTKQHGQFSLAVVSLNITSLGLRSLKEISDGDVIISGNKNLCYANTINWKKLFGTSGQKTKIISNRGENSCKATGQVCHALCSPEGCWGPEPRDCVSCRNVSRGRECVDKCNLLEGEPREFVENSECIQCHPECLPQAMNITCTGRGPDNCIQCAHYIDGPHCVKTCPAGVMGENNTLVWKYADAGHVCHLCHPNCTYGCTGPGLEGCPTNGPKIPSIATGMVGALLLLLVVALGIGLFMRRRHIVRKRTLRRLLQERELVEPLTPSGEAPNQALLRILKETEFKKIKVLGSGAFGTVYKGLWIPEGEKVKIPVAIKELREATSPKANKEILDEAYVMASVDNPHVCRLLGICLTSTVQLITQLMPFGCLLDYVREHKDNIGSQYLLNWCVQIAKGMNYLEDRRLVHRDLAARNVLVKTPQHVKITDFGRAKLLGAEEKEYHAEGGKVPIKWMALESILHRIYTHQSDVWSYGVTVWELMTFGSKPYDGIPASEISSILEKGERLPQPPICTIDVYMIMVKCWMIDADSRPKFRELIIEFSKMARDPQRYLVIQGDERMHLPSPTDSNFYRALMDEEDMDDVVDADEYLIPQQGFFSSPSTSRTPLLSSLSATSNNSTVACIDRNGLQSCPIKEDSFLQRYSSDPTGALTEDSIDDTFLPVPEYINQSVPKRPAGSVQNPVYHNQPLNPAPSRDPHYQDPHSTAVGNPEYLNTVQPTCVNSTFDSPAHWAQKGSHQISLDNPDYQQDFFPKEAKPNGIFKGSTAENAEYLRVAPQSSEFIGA
ASSAY SUMMARY: Inhibition of human recombinant cytoplasmic GST-tagged EGFR L858R mutant expressed in baculovirus using TK-substrate-biotin preincubated for 15 mins followed by substrate addition measured after 60 mins by FRET-based Z'-Lyte assay
ENDPOINT: pIC50
Remember, pIC50 is on a log scale: it is -log10 of the molar concentration.

Recorded pIC50 for C=CC(=O)Nc1cc(Nc2cc(-c3cn(C)c4ccccc34)ncn2)c(OC)cc1N(C)CCN(C)C , please?
8.66

So what does the record say about pIC50 for C=CC(=O)Nc1cc(Nc2nccc(-c3cn4c5c(cccc35)CCC4)n2)c(OC)cc1N1CC(CN(C)C)C1 ?
7.94

Endpoint output: pIC50 of C=CC(=O)Nc1cc(Nc2nccc(-c3cn4c5c(cccc35)CCC4)n2)c(OC)cc1N1CCN(C)CC1 . Value?
7.19

Name the reported pIC50 value associated with the molecule C=CC(=O)Nc1cc(Nc2cc(-c3cn4c5c(cccc35)CCC4)ncn2)c(OC)cc1N(C)CCN(C)C
8.92

Which measured pIC50 value corresponds to C=CC(=O)Nc1cc(Nc2nccc(-c3cn4c5c(cccc35)CCC4)n2)c(OC)cc1N1CC(CCN(C)C)C1 ?
7.84

Could you tell me which pIC50 is on file for C=CC(=O)Nc1cc(Nc2ncnc(-c3cn(C)c4ccccc34)c2F)c(OC)cc1N(C)CCN(C)C ?
8.00

I would be grateful if you could share the reported pIC50 for C=CC(=O)Nc1cc(Nc2nccc(-n3cc(C)c4ccccc43)n2)c(OC)cc1N(C)CCN(C)C .
6.73
